Experiment: LD50
Settings: in vivo
From the text: Toxicity is yet another factor which must be considered when selecting second-generation replacement solvents. Parameters such as the lethal dose 50 (LD50), lethal concentration 50 (LC50), cardiac sensitization, skin irritation, and mutagenicity (e.g., via the Ames test) can be used as measures. LDn or LCn abbreviation, where n is the percent lethality, is used for the dose of a toxicant lethal to n % of a test population. […]
test readout: LD50 (mg/kg)
Supply the numeric figure in mg/kg, leaving out any unit text.

Input line: What value of LD50 has been reported for the following compound? FC(F)OC(Cl)C(F)(F)F (stereo not shown) [Compound B]
Output line: 8100

Input line: What value of LD50 has been reported for the following compound? FC(F)OC(F)(F)C(F)Cl (stereo not shown) [Compound C]
Output line: 13000
